Data provenance: patent US20240317721A1

Molecular target: KRasG12C (M1-K169, biotinylated on the N-terminus) (Homo sapiens (Human), UniProt P01116, G12C)
Experiment: Covalent competition assay: scintillation proximity assay (SPA) quantifying covalent modification of KRASG12C
Details: competition with radiolabeled covalent probe (Compound B/Compound A), 2 hours incubation, 10 nM KRasG12C
readout_label: pIC50
// pIC50: -log10(molar conc.)

In the examples that follow, each entry is paired with its recorded pIC50.
[
  {
    "compound": "C=CC(=O)N1CC2(CC(n3nc(N4CCN(CCOC)CC45CCC5)c(-c4c(Cl)c(C)cc5[nH]ncc45)c3C)C2)C1 (single isomer, unassigned) [Example 71a]",
    "pIC50": 5.92
  },
  {
    "compound": "C=CC(=O)N1CC2(CC(n3nc(N4CCN(C(C)=O)CC4)c(-c4c(Cl)ccc5[nH]ncc45)c3C)C2)C1 (single isomer, unassigned) [Example 36a]",
    "pIC50": 4.61
  },
  {
    "compound": "C=CC(=O)N1CC2(CC(n3nc(N4CC[C@@H](CN5CCOC[C@@H]5CO)CC4(C)C)c(-c4c(Cl)c(Cl)cc5[nH]ncc45)c3C)C2)C1 (single isomer, unassigned) [Example 303a]",
    "pIC50": 5.30
  }
]

Then this compound:
Entry C=CC(=O)N1CC2(CC(n3nc(N4CCC(CN5CCOCC5)C4(C)C)c(-c4c(Cl)c(Cl)cc5[nH]ncc45)c3C)C2)C1 (single isomer, unassigned) [Example 218a] ; pIC50 = 7.09

* * *

Target: KRasG12C (M1-K169, biotinylated on the N-terminus) (Homo sapiens (Human), UniProt P01116, G12C)
Assay: Covalent competition assay: scintillation proximity assay (SPA) quantifying covalent modification of KRASG12C
Details: competition with radiolabeled covalent probe (Compound B/Compound A), 2 hours incubation, 10 nM KRasG12C
Method: Cells were harvested by centrifugation and frozen at −80° C. until further processing. […] The cells were lysed by 4 passages through an Avestin Emulsiflex at about 20000 psi and insoluble debris removed by centrifugation and filtered through a 0.45 µm Durapore membrane (Millipore). […] Eluted protein fractions were analyzed by Novex NuPage 4-12% PAGE. […] Positive fractions were determined by PAGE (Novex NuPage 4-12% BisTris) analysis. […]
readout_label: pIC50
// pIC50: -log10(molar conc.)

[
  {
    "compound": "C=CC(=O)N1CC2(CC(n3nc(N4CCC(N5CC(OC)C5)CC4(C)C)c(-c4c(Cl)c(Cl)cc5[nH]ncc45)c3C)C2)C1 (single isomer, unassigned) [Example 209a]",
    "pIC50": 5.96
  },
  {
    "compound": "C=CC(=O)N1CC2(CC(n3nc(N4CCC5(CN(C6COC6)C5)CC4(C)C)c(-c4c(Cl)c(C)cc5[nH]ncc45)c3C)C2)C1 (single isomer, unassigned) [Example 91a]",
    "pIC50": 5.54
  },
  {
    "compound": "C=CC(=O)N1CC2(CC(n3nc(N4CC[C@@H](CN5CCOC6CS(=O)(=O)CC65)CC4(C)C)c(-c4c(Cl)c(Cl)cc5[nH]ncc45)c3C)C2)C1 (single isomer, unassigned) [Example 265a]",
    "pIC50": 5.54
  },
  {
    "compound": "C=CC(=O)N1CC2(CC(n3nc(N4C5CCC4COC5)c(-c4c(Cl)c(C)cc5[nH]ncc45)c3C)C2)C1 (single isomer, unassigned) [Example 112b]",
    "pIC50": 6.77
  },
  {
    "compound": "Cc1cc2[nH]ncc2c(-c2c(N3CCN(C4COC4)CC34CCC4)nn(C3CC4(C3)CN(C(=O)[C@@H]3CO3)C4)c2C)c1Cl [Example 139]",
    "pIC50": 6.35
  },
  {
    "compound": "C=CC(=O)N1CC2(CC(n3nc(N4CC[C@@H](CN5CCN(C6COC6)C[C@@H]5CO)CC4(C)C)c(-c4c(Cl)c(Cl)cc5[nH]ncc45)c3C)C2)C1 (single isomer, unassigned) [Example 290a]",
    "pIC50": 5.47
  },
  {
    "compound": "C=CC(=O)N1CC2(CC(n3nc(N4CC[C@@H](CN5CCOC[C@@H]5CO)CC4(C)C)c(-c4c(Cl)c(Cl)cc5[nH]ncc45)c3C)C2)C1 (single isomer, unassigned) [Example 303b]",
    "pIC50": 8.30
  },
  {
    "compound": "C=CC(=O)N1CC2(CC(n3nc(N4CCC(C)(O)CC4(C)C)c(-c4c(Cl)c(C)cc5[nH]ncc45)c3C)C2)C1 (single isomer, unassigned) [Example 28a]",
    "pIC50": 7.12
  },
  {
    "compound": "C=CC(=O)N1CC2(CC(n3nc(N4CCN(c5nccn5C)C[C@]4(C)CC)c(-c4c(Cl)c(C)cc5[nH]ncc45)c3C)C2)C1 (single isomer, unassigned) [Example 194a]",
    "pIC50": 7.72
  },
  {
    "compound": "C=CC(=O)N1CC2(CC(n3nc(N4CCN(C(=O)OC)CC4(C)C)c(-c4c(Cl)c(C)cc5[nH]ncc45)c3C)C2)C1 (single isomer, unassigned) [Example 125b]",
    "pIC50": 7.46
  }
]

Entry C=CC(=O)N1CC2(CC(n3nc(N4CC[C@@H](CN5CCCC56CN(C(C)=O)C6)CC4(C)C)c(-c4c(Cl)c(Cl)cc5[nH]ncc45)c3C)C2)C1 (single isomer, unassigned) [Example 276a] ; pIC50 = 5.47

Entry C=CC(=O)N1CC2(CC(n3nc(N4CC[C@@H](CN5CCOC6(COC6)C5)CC4(C)C)c(-c4c(Cl)c(C)cc5[nH]ncc45)c3C)C2)C1 (single isomer, unassigned) [Example 299a] ; pIC50 = 6.10

Entry C=CC(=O)N1CC2(CC(n3nc(N4CCS(=O)(=O)CC4(C)C)c(-c4c(Cl)c(C)cc5[nH]ncc45)c3C)C2)C1 (single isomer, unassigned) [Example 82a] ; pIC50 = 4.30

Entry C=CC(=O)N1CC2(CC(n3nc(N4CC[C@@H](CN5CCN(C(C)=O)CC5)CC4(C)C)c(-c4c(Cl)c(Cl)cc5[nH]ncc45)c3C)C2)C1 (single isomer, unassigned) [Example 319a] ; pIC50 = 5.57

* * *

Molecular target: KRasG12C (M1-K169, biotinylated on the N-terminus) (Homo sapiens (Human), UniProt P01116, G12C)
Experiment: Covalent competition assay: scintillation proximity assay (SPA) quantifying covalent modification of KRASG12C
Details: competition with radiolabeled covalent probe (Compound B/Compound A), 2 hours incubation, 10 nM KRasG12C
readout_label: IC50

[
  {
    "compound": "C=CC(=O)N1CC2(CC(n3nc(N4CCC(N5C6CCC5COC6)CC4(C)C)c(-c4c(Cl)c(C)cc5[nH]ncc45)c3C)C2)C1 (single isomer, unassigned) [Example 74b]",
    "readout_label": "IC50",
    "observed_measurement": "26 nM"
  },
  {
    "compound": "C=CC(=O)N1CC2(CC(n3nc(N4CC[C@@H](CN(CCO)CCOC)CC4(C)C)c(-c4c(Cl)c(Cl)cc5[nH]ncc45)c3C)C2)C1 (single isomer, unassigned) [Example 253b]",
    "readout_label": "IC50",
    "observed_measurement": "8 nM"
  },
  {
    "compound": "C=CC(=O)N1CC2(CC(n3nc(N4CCN(C5(C)COC5)CC45CCC5)c(-c4c(Cl)c(C)cc5[nH]ncc45)c3C)C2)C1 (single isomer, unassigned) [Example 191a]",
    "readout_label": "IC50",
    "observed_measurement": "> 5000 nM"
  },
  {
    "compound": "C=CC(=O)N1CC2(CC(n3nc(N4CC[C@@H](CN5CC6(C5)CN(C)C(=O)N6C)CC4(C)C)c(-c4c(Cl)c(Cl)cc5[nH]ncc45)c3C)C2)C1 (single isomer, unassigned) [Example 296a]",
    "readout_label": "IC50",
    "observed_measurement": "392 nM"
  }
]

Entry C=CC(=O)N1CC2(CC(n3nc(N4CCC(N(C)C5COC5)CC45CCC5)c(-c4c(Cl)c(C)cc5[nH]ncc45)c3C)C2)C1 (single isomer, unassigned) [Example 51a] ; IC50 = 10 nM

* * *

# IC50 per record follows
Molecular target: KRasG12C (M1-K169, biotinylated on the N-terminus) (Homo sapiens (Human), UniProt P01116, G12C)
Experiment: Covalent competition assay: scintillation proximity assay (SPA) quantifying covalent modification of KRASG12C
Details: competition with radiolabeled covalent probe (Compound B/Compound A), 2 hours incubation, 10 nM KRasG12C
// note: answer is a bare numeric in nM

[
  {
    "molecule": "C=CC(=O)N1CC2(CC(n3nc(N4CCN(C5CCCOC5)C[C@]4(C)CC)c(-c4c(Cl)c(C)cc5[nH]ncc45)c3C)C2)C1 (single isomer, unassigned) [Example 157d]",
    "IC50 / nM": 7
  }
]

Then this molecule:
Entry C=CC(=O)N1CC2(CC(n3nc(N4CC[C@@H](CN5CC6(CCN(C(C)=O)C6)C5)CC4(C)C)c(-c4c(Cl)c(Cl)cc5[nH]ncc45)c3C)C2)C1 (single isomer, unassigned) [Example 268b] ; IC50 = 7
